Measurement description: xn = mol fraction of the nth substance listed
Test settings: 318.15 K; 100.5 kPa; Liquid; x1 = 0.85

Compound | mass density [kg/m3]
CCOC(=O)c1ccccc1O [ethyl 2-hydroxybenzoate] + CCO | 1083.37
CCOC(=O)CC(C)C [ethyl 3-methylbutanoate] + CCO | 834.44
CCC(=O)OCc1ccccc1 [benzyl propanoate] + CCO | 994.46
CCOC(=O)CC(C)=O [ethyl 3-oxobutanoate] + CCO | 984.54
CC(=O)OCc1ccccc1 [benzyl ethanoate] + CCO | 1014.22
COC(=O)c1ccccc1 [methyl benzoate] + CCO | 1042.24

====

viscosity listing for selected compounds.
Measurement description: xn = mol fraction of the nth substance listed
Test settings: 298.15 K; 100.5 kPa; Liquid; Capillary tube (Ostwald / Ubbelohde) method; x1 = 0.45

Compound | viscosity [mPa·s]
CCOC(=O)CC(C)C [ethyl 3-methylbutanoate] + CCO | 0.742
CCOC(=O)CC(C)=O [ethyl 3-oxobutanoate] + CCO | 1.087
COC(=O)c1ccccc1 [methyl benzoate] + CCO | 1.266
CC(=O)OCc1ccccc1 [benzyl ethanoate] + CCO | 1.365
CCC(=O)OCc1ccccc1 [benzyl propanoate] + CCO | 1.454

====

Measurement description: xn = mol fraction of the nth substance listed
Test settings: 298.15 K; 100.5 kPa; Liquid; x1 = 0.95
Readout type: mass density (kg/m3)

Compound | Readout type | Reported measurement
CCOC(=O)CC(C)=O [ethyl 3-oxobutanoate] + CCO | mass density | 1017.72
CCC(=O)OCc1ccccc1 [benzyl propanoate] + CCO | mass density | 1023.06
CC(=O)OCc1ccccc1 [benzyl ethanoate] + CCO | mass density | 1045.21
COC(=O)c1ccccc1 [methyl benzoate] + CCO | mass density | 1076.94
CCOC(=O)c1ccccc1O [ethyl 2-hydroxybenzoate] + CCO | mass density | 1118.07
CCOC(=O)CC(C)C [ethyl 3-methylbutanoate] + CCO | mass density | 858.12

====

Measurement description: xn = mol fraction of the nth substance listed
Test settings: 308.15 K; 100.5 kPa; Liquid; Capillary tube (Ostwald / Ubbelohde) method; x1 = 0.35
Each record here notes measured viscosity.
Readout type: viscosity (mPa·s)

Molecule | Readout type | Reported measurement
CCOC(=O)CC(C)=O [ethyl 3-oxobutanoate] + CCO | viscosity | 0.878
CC(=O)OCc1ccccc1 [benzyl ethanoate] + CCO | viscosity | 1.067
CCOC(=O)CC(C)C [ethyl 3-methylbutanoate] + CCO | viscosity | 0.663
COC(=O)c1ccccc1 [methyl benzoate] + CCO | viscosity | 1.006
CCC(=O)OCc1ccccc1 [benzyl propanoate] + CCO | viscosity | 1.127

====

Measurement description: xn = mol fraction of the nth substance listed
Test settings: 308.15 K; 100.5 kPa; Liquid; x1 = 0.4
Readout type: mass density (kg/m3)

Compound | Readout type | Endpoint unit | Reported measurement
COC(=O)c1ccccc1 [methyl benzoate] + CCO | mass density | kg/m3 | 954.11
CCC(=O)OCc1ccccc1 [benzyl propanoate] + CCO | mass density | kg/m3 | 934.16
CCOC(=O)CC(C)C [ethyl 3-methylbutanoate] + CCO | mass density | kg/m3 | 821.66
CCOC(=O)CC(C)=O [ethyl 3-oxobutanoate] + CCO | mass density | kg/m3 | 916.34
CCOC(=O)c1ccccc1O [ethyl 2-hydroxybenzoate] + CCO | mass density | kg/m3 | 991.08
CC(=O)OCc1ccccc1 [benzyl ethanoate] + CCO | mass density | kg/m3 | 942.5

====

Measurement description: xn = mol fraction of the nth substance listed
Test settings: 298.15 K; 100.5 kPa; Liquid; x1 = 0.75
Mark each entry 1 if its mass density sits below 1000 kg/m3, and -1 for all others.

Molecule | Assigned class
CCOC(=O)CC(C)C [ethyl 3-methylbutanoate] + CCO | 1
CCOC(=O)c1ccccc1O [ethyl 2-hydroxybenzoate] + CCO | -1
COC(=O)c1ccccc1 [methyl benzoate] + CCO | -1

====

Measurement description: xn = mol fraction of the nth substance listed
Test settings: 318.15 K; 100.5 kPa; Liquid; x1 = 0.45
Strictly below 900 kg/m3 in mass density: T. Otherwise: F.

Compound | Assigned class
CC(=O)OCc1ccccc1 [benzyl ethanoate] + CCO | F
COC(=O)c1ccccc1 [methyl benzoate] + CCO | F
CCOC(=O)c1ccccc1O [ethyl 2-hydroxybenzoate] + CCO | F
CCC(=O)OCc1ccccc1 [benzyl propanoate] + CCO | F
CCOC(=O)CC(C)C [ethyl 3-methylbutanoate] + CCO | T

====

Measurement description: xn = mol fraction of the nth substance listed
Test settings: 298.15 K; 100.5 kPa; Liquid; Capillary tube (Ostwald / Ubbelohde) method; x1 = 0.2
Think of 1 mPa·s as a floor: if viscosity stands on it or above, it is 1 (yes); beneath it, 0 (no).

Compound | Assigned class
COC(=O)c1ccccc1 [methyl benzoate] + CCO | 1 (yes)
CCOC(=O)CC(C)C [ethyl 3-methylbutanoate] + CCO | 0 (no)
CCC(=O)OCc1ccccc1 [benzyl propanoate] + CCO | 1 (yes)
CC(=O)OCc1ccccc1 [benzyl ethanoate] + CCO | 1 (yes)

====

This listing pairs compounds with measured viscosity.
Test settings: 308.15 K; 100.5 kPa; Liquid; Capillary tube (Ostwald / Ubbelohde) method

Compound | viscosity [mPa·s]
COC(=O)c1ccccc1 [methyl benzoate] | 1.531
CCOC(=O)CC(C)=O [ethyl 3-oxobutanoate] | 1.344
CCC(=O)OCc1ccccc1 [benzyl propanoate] | 1.787
CC(=O)OCc1ccccc1 [benzyl ethanoate] | 1.703
CCOC(=O)CC(C)C [ethyl 3-methylbutanoate] | 0.642
CCO | 0.921

====

Measurement description: xn = mol fraction of the nth substance listed
Test settings: 318.15 K; 100.5 kPa; Liquid; x1 = 0.25
Numbers after ± are expanded uncertainties.
Measured mass density, listed per entry for reference.

Compound | mass density
CCOC(=O)CC(C)=O [ethyl 3-oxobutanoate] + CCO | 866.05 ± 0.36 kg/m3
CCOC(=O)c1ccccc1O [ethyl 2-hydroxybenzoate] + CCO | 924.22 ± 0.28 kg/m3
CCC(=O)OCc1ccccc1 [benzyl propanoate] + CCO | 884.27 ± 0.33 kg/m3
CCOC(=O)CC(C)C [ethyl 3-methylbutanoate] + CCO | 799.73 ± 0.46 kg/m3
CC(=O)OCc1ccccc1 [benzyl ethanoate] + CCO | 888.07 ± 0.32 kg/m3
COC(=O)c1ccccc1 [methyl benzoate] + CCO | 893.66 ± 0.33 kg/m3

====

Measurement description: xn = mol fraction of the nth substance listed
Test settings: 308.15 K; 100.5 kPa; Liquid; x1 = 0.6
hey, just use Satisfied if measured mass density is less than 1000 kg/m3, otherwise Not satisfied

Compound | Assigned class
CCOC(=O)c1ccccc1O [ethyl 2-hydroxybenzoate] + CCO | Not satisfied
CCOC(=O)CC(C)C [ethyl 3-methylbutanoate] + CCO | Satisfied
CCOC(=O)CC(C)=O [ethyl 3-oxobutanoate] + CCO | Satisfied

====

Measurement description: xn = mol fraction of the nth substance listed
Test settings: 288.15 K; 100.5 kPa; Liquid; Capillary tube (Ostwald / Ubbelohde) method; x1 = 0.3
Criterion: viscosity strictly less than 1 mPa·s. Met: MET. Not met: NOT MET.

Compound | Assigned class
COC(=O)c1ccccc1 [methyl benzoate] + CCO | NOT MET
CCC(=O)OCc1ccccc1 [benzyl propanoate] + CCO | NOT MET
CCOC(=O)CC(C)C [ethyl 3-methylbutanoate] + CCO | MET
CC(=O)OCc1ccccc1 [benzyl ethanoate] + CCO | NOT MET
CCOC(=O)CC(C)=O [ethyl 3-oxobutanoate] + CCO | NOT MET

====

Measurement description: xn = mol fraction of the nth substance listed
Test settings: 318.15 K; 100.5 kPa; Liquid; Capillary tube (Ostwald / Ubbelohde) method; x1 = 0.75
± gives the expanded uncertainty stated by the source.

Compound | viscosity
CC(=O)OCc1ccccc1 [benzyl ethanoate] + CCO | 1.197 ± 0.014 mPa·s
CCOC(=O)CC(C)=O [ethyl 3-oxobutanoate] + CCO | 0.948 ± 0.013 mPa·s
CCC(=O)OCc1ccccc1 [benzyl propanoate] + CCO | 1.278 ± 0.014 mPa·s
COC(=O)c1ccccc1 [methyl benzoate] + CCO | 1.083 ± 0.014 mPa·s
CCOC(=O)CC(C)C [ethyl 3-methylbutanoate] + CCO | 0.546 ± 0.013 mPa·s

====

Measurement description: xn = mol fraction of the nth substance listed
Test settings: 318.15 K; 100.5 kPa; Liquid; Capillary tube (Ostwald / Ubbelohde) method; x1 = 0.95
I'd appreciate it if you marked entries Criterion met when viscosity is lower than 1 mPa·s and Criterion not met when it is not.

Compound | Assigned class
CCOC(=O)CC(C)=O [ethyl 3-oxobutanoate] + CCO | Criterion not met
COC(=O)c1ccccc1 [methyl benzoate] + CCO | Criterion not met
CC(=O)OCc1ccccc1 [benzyl ethanoate] + CCO | Criterion not met
CCOC(=O)CC(C)C [ethyl 3-methylbutanoate] + CCO | Criterion met
CCC(=O)OCc1ccccc1 [benzyl propanoate] + CCO | Criterion not met
